assay_info: Oral bioavailability in cynomolgus monkey at 5 mg/kg
Format: ADME, organism-based, Macaca fascicularis
measurement_setup: in vivo
readout_kind: bioavailability

What measured bioavailability goes with "COC(=O)N[C@H](C(=O)N1CCC[C@H]1c1ncc(-c2ccc3c(c2)Oc2ccc(-c4cnc([C@@H]5CCCN5C(=O)[C@@H](NC(=O)OC)C(C)C)[nH]4)cc2C3(C)C)[nH]1)C(C)C" ?
28.4%

----------
assay_info: Clearance in cynomolgus monkey at 1 mg/kg, iv
Type: ADME, organism-based, Macaca fascicularis
Parameters: dose 1 mg/kg, route intravenous
measurement_setup: in vivo
readout_kind: clearance
Could you give the number and then its unit, please?

What measured clearance goes with "COC(=O)N[C@H](C(=O)N1CCC[C@H]1c1ncc(-c2ccc3c(c2)Oc2ccc(-c4cnc([C@@H]5CCCN5C(=O)[C@@H](NC(=O)OC)C(C)C)[nH]4)cc2C3(C)C)[nH]1)C(C)C" ?
7 mL/min/kg

----------
assay_info: AUC(last) in Sprague-Dawley rat at 75 mg/kg, po
Format: ADME, organism-based
Design: time 0 - last, dose 75 mg/kg, route oral
measurement_setup: plasma
readout_kind: AUC(0-t) (µg·h/mL)
All answers are understood in µg·h/mL, so give the number only.

What measured AUC(0-t) goes with "COC(=O)N[C@H](C(=O)N1CCC[C@H]1c1ncc(-c2ccc3c(c2)Oc2ccc(-c4cnc([C@@H]5CCCN5C(=O)[C@@H](NC(=O)OC)C(C)C)[nH]4)cc2C3(C)C)[nH]1)C(C)C" ?
137

----------
Tested on: Hepatitis C virus
assay_info: Antiviral activity against HCV genotype 1a infected in human HuH7 cells by luciferase reporter gene assay
Assay type: functional, cell-based, Hepacivirus hominis
measurement_setup: subtype 1a, Huh-7
pEC50: −log10 of the molar value.
// label = Yes if pEC50 is not less than 9, otherwise No

Solved entries (count: 5):
molecule=COC(=O)N[C@H](C(=O)N1CCC[C@H]1c1ncc(-c2ccc3c(c2)-c2ccc(-c4cnc([C@@H]5CCCN5C(=O)[C@@H](NC(=O)OC)C(C)C)[nH]4)cc2-3)[nH]1)C(C)C assigned_class=No
molecule=COC(=O)N[C@H](C(=O)N1CCC[C@H]1c1ncc(-c2ccc3c(c2)S(=O)(=O)c2cc(-c4cnc([C@@H]5CCCN5C(=O)[C@@H](NC(=O)OC)C(C)C)[nH]4)ccc2-3)[nH]1)C(C)C assigned_class=No
molecule=COC(=O)N[C@H](C(=O)N1CCC[C@H]1c1ncc(-c2ccc3c(c2)c(=O)c2ccc(-c4cnc([C@@H]5CCCN5C(=O)[C@@H](NC(=O)OC)C(C)C)[nH]4)cc2n3C)[nH]1)C(C)C assigned_class=No
molecule=COC(=O)N[C@H](C(=O)N1CCC[C@H]1c1ncc(-c2ccc3c(c2)Oc2ccc(-c4cnc([C@@H]5CCCN5C(=O)[C@@H](NC(=O)OC)C(C)C)[nH]4)cc2C32CC2)[nH]1)C(C)C assigned_class=Yes
molecule=COC(=O)N[C@H](C(=O)N1CCC[C@H]1c1ncc(-c2ccc3c(=O)c4cc(-c5cnc([C@@H]6CCCN6C(=O)[C@@H](NC(=O)OC)C(C)C)[nH]5)ccc4oc3c2)[nH]1)C(C)C assigned_class=Yes

hey, is pEC50 for this one >= 9? "COC(=O)N[C@H](C(=O)N1CCC[C@H]1c1ncc(-c2ccc3c(c2)Cc2ccc(-c4cnc([C@@H]5CCCN5C(=O)[C@@H](NC(=O)OC)C(C)C)[nH]4)cc2O3)[nH]1)C(C)C"
Yes

hey, is pEC50 for this one >= 9? "COC(=O)N[C@H](C(=O)N1CCC[C@H]1c1ncc(-c2ccc3c(c2)[nH]c2cc(-c4cnc([C@@H]5CCCN5C(=O)[C@@H](NC(=O)OC)C(C)C)[nH]4)ccc23)[nH]1)C(C)C"
No

hey, is pEC50 for this one >= 9? COC(=O)N[C@H](C(=O)N1CCC[C@H]1c1ncc(-c2ccc(-c3ccc(-c4cnc([C@@H]5CCCN5C(=O)[C@@H](NC(=O)OC)C(C)C)[nH]4)cc3)cc2)[nH]1)C(C)C [DACLATASVIR]
Yes

hey, is pEC50 for this one >= 9? "COC(=O)N[C@H](C(=O)N1CCC[C@H]1c1ncc(-c2ccc3nc4cc(-c5cnc([C@@H]6CCCN6C(=O)[C@@H](NC(=O)OC)C(C)C)[nH]5)ccc4nc3c2)[nH]1)C(C)C"
Yes

hey, is pEC50 for this one >= 9? "COC(=O)N[C@H](C(=O)N1CCC[C@H]1c1ncc(-c2ccc3c(c2)CCc2ccc(-c4cnc([C@@H]5CCCN5C(=O)[C@@H](NC(=O)OC)C(C)C)[nH]4)cc2O3)[nH]1)C(C)C"
No

----------
assay_info: Clearance in beagle dog at 1 mg/kg, iv
Format: ADME, organism-based, Canis lupus familiaris
Set-up: dose 1 mg/kg, route intravenous
measurement_setup: in vivo
readout_kind: clearance (mL/min/kg)
All answers are understood in mL/min/kg, so give the number only.

What measured clearance goes with "COC(=O)N[C@H](C(=O)N1CCC[C@H]1c1ncc(-c2ccc3c(c2)Oc2ccc(-c4cnc([C@@H]5CCCN5C(=O)[C@@H](NC(=O)OC)C(C)C)[nH]4)cc2C3(C)C)[nH]1)C(C)C" ?
2.67

----------
assay_info: Tmax in Sprague-Dawley rat at 250 mg/kg, po
Format: ADME, organism-based
Design: dose 250 mg/kg, route oral
measurement_setup: in vivo
readout_kind: Tmax (h)
All answers are understood in h, so give the number only.

What measured Tmax goes with "COC(=O)N[C@H](C(=O)N1CCC[C@H]1c1ncc(-c2ccc3c(c2)Oc2ccc(-c4cnc([C@@H]5CCCN5C(=O)[C@@H](NC(=O)OC)C(C)C)[nH]4)cc2C3(C)C)[nH]1)C(C)C" ?
3.33

----------
assay_info: Oral bioavailability in beagle dog at 5 mg/kg
Assay type: ADME, organism-based, Canis lupus familiaris
measurement_setup: in vivo
readout_kind: bioavailability (%)
All answers are understood in %, so give the number only.

What measured bioavailability goes with "COC(=O)N[C@H](C(=O)N1CCC[C@H]1c1ncc(-c2ccc3c(c2)Oc2ccc(-c4cnc([C@@H]5CCCN5C(=O)[C@@H](NC(=O)OC)C(C)C)[nH]4)cc2C3(C)C)[nH]1)C(C)C" ?
53.4

----------
assay_info: AUC(last) in beagle dog at 250 mg/kg, po
Assay type: ADME, organism-based, Canis lupus familiaris
Set-up: dose 250 mg/kg, route oral, time 0 - last
measurement_setup: plasma
readout_kind: AUC(0-t)
Could you give the number and then its unit, please?

What measured AUC(0-t) goes with "COC(=O)N[C@H](C(=O)N1CCC[C@H]1c1ncc(-c2ccc3c(c2)Oc2ccc(-c4cnc([C@@H]5CCCN5C(=O)[C@@H](NC(=O)OC)C(C)C)[nH]4)cc2C3(C)C)[nH]1)C(C)C" ?
192 µg·h/mL

----------
Tested on: Hepatitis C virus
assay_info: Antiviral activity against HCV genotype 1a infected in human HuH7 cells by luciferase reporter gene assay
Type: functional, cell-based, Hepacivirus hominis
measurement_setup: subtype 1a, Huh-7
Recorded pEC50 for the following compounds
// field semantics: pEC50 = negative decimal log of concentration (mol/L)

compound_string=COC(=O)N[C@H](C(=O)N1CCC[C@H]1c1ncc(-c2ccc3oc4cc(-c5cnc([C@@H]6CCCN6C(=O)[C@@H](NC(=O)OC)C(C)C)[nH]5)c(F)cc4c(=O)c3c2)[nH]1)C(C)C target_system="Hepatitis C virus" readout_kind=pEC50 value_reported=9.22
compound_string=COC(=O)N[C@H](C(=O)N1CCC[C@H]1c1ncc(-c2ccc3c(c2)Oc2ccc(-c4cnc([C@@H]5CCCN5C(=O)[C@@H](NC(=O)OC)C(C)C)[nH]4)cc2C3(C)C)[nH]1)C(C)C target_system="Hepatitis C virus" readout_kind=pEC50 value_reported=10.14

What measured pEC50 goes with "COC(=O)N[C@H](C(=O)N1CCC[C@H]1c1ncc(-c2ccc3c(c2)Oc2ccc(-c4cnc([C@@H]5CCCN5C(=O)[C@@H](NC(=O)OC)C(C)C)[nH]4)cc2O3)[nH]1)C(C)C" ?
10.36

What measured pEC50 goes with "COC(=O)N[C@H](C(=O)N1CCC[C@H]1c1ncc(-c2ccc3c(c2)Cc2cc(-c4cnc([C@@H]5CCCN5C(=O)[C@@H](NC(=O)OC)C(C)C)[nH]4)ccc2-3)[nH]1)C(C)C" ?
9.60

----------
Recorded AUC(0-t) for the following compounds
assay_info: AUC(last) in Sprague-Dawley rat at 5 mg/kg, po
Assay type: ADME, organism-based
Parameters: dose 5 mg/kg, route oral, time 0 - last
measurement_setup: plasma
All answers are understood in ng·h/mL, so give the number only.

Study these solved cases before continuing.
compound_string=COC(=O)N[C@H](C(=O)N1CCC[C@H]1c1ncc(-c2ccc3c(=O)c4cc(-c5cnc([C@@H]6CCCN6C(=O)[C@@H](NC(=O)OC)C(C)C)[nH]5)ccc4oc3c2)[nH]1)C(C)C value_reported=197
compound_string=COC(=O)N[C@H](C(=O)N1CCC[C@H]1c1ncc(-c2ccc3c(c2)Oc2ccc(-c4cnc([C@@H]5CCCN5C(=O)[C@@H](NC(=O)OC)C(C)C)[nH]4)cc2O3)[nH]1)C(C)C value_reported=1470
compound_string=COC(=O)N[C@H](C(=O)N1CCC[C@H]1c1ncc(-c2ccc3c(c2)Cc2ccc(-c4cnc([C@@H]5CCCN5C(=O)[C@@H](NC(=O)OC)C(C)C)[nH]4)cc2O3)[nH]1)C(C)C value_reported=2090

Next, consider the following compound.
What measured AUC(0-t) goes with "COC(=O)N[C@H](C(=O)N1CCC[C@H]1c1ncc(-c2ccc3c(c2)Oc2ccc(-c4cnc([C@@H]5CCCN5C(=O)[C@@H](NC(=O)OC)C(C)C)[nH]4)cc2C3(C)C)[nH]1)C(C)C" ?
5250
